experiment: ATG_NF_kB_CIS: Attagene CIS-FACTORIAL HepG2 Assay for human Nuclear Factor Kappa B (NF-kB) (AID 2282991); conditions: HepG2 Attagene cis-factorial NF-kB reporter mRNA; actives raise or lower the signal
Active and inactive are the calls of the source. Rule for the calls: active = hit-call score of the fitted dose curve at least 0.9, where 1 is the maximum; inactive = score below 0.9.
EXPERIMENTAL ENDPOINT: outcome

[[record]]
compound = "Cc1cc2nc3c(=O)[nH]c(=O)nc-3n(C[C@H](O)[C@H](O)[C@H](O)CO)c2cc1C"
measured_value = "inactive"

[[record]]
compound = "N#CCN(CC#N)CCN(CC#N)CC#N"
measured_value = "inactive"

[[record]]
compound = "CN(C)CCCN1c2ccccc2CCc2ccc(Cl)cc21"
measured_value = "inactive"

[[record]]
compound = "CC1=C(CC=O)C(C)(C)CCC1"
measured_value = "inactive"

[[record]]
compound = "CCCN[C@H]1CCc2nc(N)sc2C1"
measured_value = "inactive"

[[record]]
compound = "O=C(O)/C=C\\C(=O)O"
measured_value = "inactive"

[[record]]
compound = "COC(=O)c1ccccc1"
measured_value = "inactive"

[[record]]
compound = "CCC(C)(CCC(C)C)C(=O)O (centres undefined)"
measured_value = "inactive"

[[record]]
compound = "NC(=O)c1ccc([N+](=O)[O-])cc1Cl"
measured_value = "inactive"

[[record]]
compound = "O=C(OCc1ccccc1)c1ccccc1"
measured_value = "inactive"

[[record]]
compound = "COC(=O)CCSCCC(=O)OC"
measured_value = "inactive"

[[record]]
compound = "CN1CCCC1"
measured_value = "inactive"

[[record]]
compound = "O=C(CC(C(=O)OC1CCCCC1)S(=O)(=O)O)OC1CCCCC1 (centres undefined)"
measured_value = "inactive"

[[record]]
compound = "C=C(C)C(=O)OCCCCCC"
measured_value = "inactive"


====

biological target: Cellular tumor antigen p53 (Homo sapiens); assay: TOX21_p53_BLA_p4_ratio: Tox21 HCT-116 p53 Agonism Beta-lactamase Assay, Ratio, Phase 4 (AID 2283601)
Records with an inconclusive call do not appear. Activity calls are given as the source filed them. The calls were made as follows: active = hit-call score of the fitted dose curve at least 0.9, where 1 is the maximum; inconclusive = response in the unintended direction; inactive = score below 0.9.
Classes used: yes (1) for active, no (0) for inactive

[[record]]
compound = "O=S(=O)(O)CCS"
tested_system = "Cellular tumor antigen p53 (Homo sapiens)"
answer_label = "no (0)"

[[record]]
compound = "CC[C@@H](C(=O)[C@@H](C)[C@@H](O)[C@H](C)[C@@H]1O[C@@H]([C@@H](CC)C(=O)O)CC[C@@H]1C)[C@H]1O[C@]2(C=C[C@@H](O)[C@]3(CC[C@@](C)([C@H]4CC[C@](O)(CC)[C@H](C)O4)O3)O2)[C@H](C)C[C@@H]1C"
tested_system = "Cellular tumor antigen p53 (Homo sapiens)"
answer_label = "no (0)"

[[record]]
compound = "Oc1c(I)cc(Cl)c2cccnc12"
tested_system = "Cellular tumor antigen p53 (Homo sapiens)"
answer_label = "no (0)"

[[record]]
compound = "CCCC(=O)OC(=O)CCC"
tested_system = "Cellular tumor antigen p53 (Homo sapiens)"
answer_label = "no (0)"

[[record]]
compound = "CC(=O)NCc1c(I)c(NC(C)=O)c(I)c(C(=O)O)c1I"
tested_system = "Cellular tumor antigen p53 (Homo sapiens)"
answer_label = "no (0)"

[[record]]
compound = "CC(C)OC(=O)C(C)N(C(=O)c1ccccc1)c1ccc(F)c(Cl)c1 (configuration not stated)"
tested_system = "Cellular tumor antigen p53 (Homo sapiens)"
answer_label = "no (0)"

[[record]]
compound = "CSc1ccc2c(c1)C(N1CCN(C)CC1)Cc1ccccc1S2 (configuration not stated)"
tested_system = "Cellular tumor antigen p53 (Homo sapiens)"
answer_label = "yes (1)"

[[record]]
compound = "C=CC(OCC)OCC"
tested_system = "Cellular tumor antigen p53 (Homo sapiens)"
answer_label = "no (0)"

[[record]]
compound = "O=C(O)CCC(=O)C(=O)O"
tested_system = "Cellular tumor antigen p53 (Homo sapiens)"
answer_label = "no (0)"

[[record]]
compound = "CCOC(=O)C(C)C(C)=O (configuration not stated)"
tested_system = "Cellular tumor antigen p53 (Homo sapiens)"
answer_label = "no (0)"

[[record]]
compound = "O=C(O)c1cc(=O)c2ccccc2o1"
tested_system = "Cellular tumor antigen p53 (Homo sapiens)"
answer_label = "no (0)"

[[record]]
compound = "OC(CCN1CCCC1)(c1ccccc1)C1CCCCC1 (configuration not stated)"
tested_system = "Cellular tumor antigen p53 (Homo sapiens)"
answer_label = "no (0)"


====

read-out: Interleukin-8 (IL8), CXCL8 (gene 3576); test: BSK_CASM3C_IL8: BioMAP Diversity Plus: CASM3C Assay for Interleukin-8 (IL8) Biomarker Activity (AID 2283042); conditions: primary human coronary artery smooth muscle cells; actives raise or lower the signal;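 note: IL-8 protein level quantified by ELISA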
Activity calls are given as the source filed them. The calls were made as follows: active = hit-call score of the fitted dose curve at least 0.9, where 1 is the maximum; inactive = score below 0.9.
Possible outcomes: true (1) for active, false (0) for inactive

[[record]]
compound = "CC(C)C1OCCN1CCOC(=O)NCCCCCCNC(=O)OCCN1CCOC1C(C)C (stereo not given)"
answer_label = "false (0)"

[[record]]
compound = "CCC[Si](OC(C)=O)(OC(C)=O)OC(C)=O"
answer_label = "false (0)"

[[record]]
compound = "Cc1c(C(N)=O)cc([N+](=O)[O-])cc1[N+](=O)[O-]"
answer_label = "false (0)"

[[record]]
compound = "CC[N+](CC)(CC(=O)Nc1c(C)cccc1C)Cc1ccccc1 (tested in a mixture with another compound)"
answer_label = "false (0)"

[[record]]
compound = "COc1cc(CNC(=O)CCCC/C=C/C(C)C)ccc1O"
answer_label = "false (0)"

[[record]]
compound = "OC(C(F)(F)F)(C(F)(F)F)C(O)(C(F)(F)F)C(F)(F)F"
answer_label = "false (0)"

[[record]]
compound = "CC(C)CC(=O)CC(C)CC(C)C (stereo not given)"
answer_label = "false (0)"

[[record]]
compound = "O=[N+]([O-])c1cc(S(=O)(=O)Nc2ccccc2)ccc1Nc1ccccc1"
answer_label = "false (0)"

[[record]]
compound = "CCCCCCCCCCCCCCCCCC[N+](C)(C)C"
answer_label = "true (1)"

[[record]]
compound = "O=C(C(=O)c1ccccc1)c1ccccc1"
answer_label = "false (0)"


====

read-out: TIMP metallopeptidase inhibitor 2 (TIMP2), TIMP2 (gene 7077); assay: BSK_KF3CT_TIMP2: BioMAP Diversity Plus: KF3CT Assay for TIMP metallopeptidase inhibitor 2 (TIMP2) Biomarker Activity (AID 2283071); conditions: primary human keratinocytes with fibroblasts; actives raise or lower the signal
Calls of active or inactive are those of the source. Rule for the calls: active = hit-call score of the fitted dose curve at least 0.9, where 1 is the maximum; inactive = score below 0.9.
Labels: active, inactive

[[record]]
molecule = "Sc1nc2ccccc2s1"
answer_label = "inactive"

[[record]]
molecule = "COc1ccccc1Oc1c(NS(=O)(=O)c2ccc(C(C)(C)C)cc2)nc(-c2ncccn2)nc1OCCO"
answer_label = "inactive"

[[record]]
molecule = "CCC(C)=NO"
answer_label = "inactive"

[[record]]
molecule = "CC[N+](CC)(CC(=O)Nc1c(C)cccc1C)Cc1ccccc1"
answer_label = "inactive"

[[record]]
molecule = "CN(C)CCC(c1ccc(Cl)cc1)c1ccccn1 (stereo not given)"
answer_label = "inactive"

[[record]]
molecule = "CCCCCCC(O)CCCCCCCCCCC(=O)OC (stereo not given)"
answer_label = "inactive"

[[record]]
molecule = "COc1cc(CNC(=O)CCCC/C=C/C(C)C)ccc1O"
answer_label = "inactive"

[[record]]
molecule = "CC(C)C1OCCN1CCOC(=O)NCCCCCCNC(=O)OCCN1CCOC1C(C)C (stereo not given)"
answer_label = "inactive"

[[record]]
molecule = "CCCCC(CC)COC(=O)C=Cc1ccc(OC)cc1 (stereo not given)"
answer_label = "inactive"

[[record]]
molecule = "CC(C)CC(=O)CC(C)CC(C)C (stereo not given)"
answer_label = "active"

[[record]]
molecule = "C1CN(CCOCCN2CCOCC2)CCO1"
answer_label = "inactive"

[[record]]
molecule = "CN(C)Cc1cc(C(C)(C)C)c(O)c(C(C)(C)C)c1"
answer_label = "inactive"

[[record]]
molecule = "Cc1cc(-n2nc3ccc(Cl)cc3n2)c(O)c(C(C)(C)C)c1"
answer_label = "inactive"

[[record]]
molecule = "CN(C)c1ccc(C(c2ccccc2)c2ccc(N(C)C)cc2)cc1"
answer_label = "inactive"

[[record]]
molecule = "Cc1c(C(N)=O)cc([N+](=O)[O-])cc1[N+](=O)[O-]"
answer_label = "inactive"


====

Target: Cellular tumor antigen p53 (Homo sapiens) (UniProt P04637)
Sequence (P04637 whole entry, looked up): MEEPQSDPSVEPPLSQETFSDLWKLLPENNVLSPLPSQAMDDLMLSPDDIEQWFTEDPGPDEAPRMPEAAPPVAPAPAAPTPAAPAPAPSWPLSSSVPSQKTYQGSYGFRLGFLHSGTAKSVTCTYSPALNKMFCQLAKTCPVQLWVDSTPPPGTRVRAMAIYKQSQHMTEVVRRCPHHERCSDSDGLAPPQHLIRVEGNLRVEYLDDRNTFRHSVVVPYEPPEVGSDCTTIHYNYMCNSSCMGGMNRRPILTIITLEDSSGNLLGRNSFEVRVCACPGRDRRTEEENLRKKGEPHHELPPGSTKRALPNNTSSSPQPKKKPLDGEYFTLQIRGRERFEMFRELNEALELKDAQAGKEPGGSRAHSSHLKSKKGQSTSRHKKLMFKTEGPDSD
Experiment: TOX21_p53_BLA_p4_ratio: Tox21 HCT-116 p53 Agonism Beta-lactamase Assay, Ratio, Phase 4 (AID 2283601)
Protocol: TOX21_p53_BLA_p4 is a cell-based, single-readout assay that uses HCT116, a human intestinal cell line, […] in a 1536-well plate.TOX21_p53_BLA_p4_ratio is an assay readout measuring reporter gene via receptor activity and designed using inducible reporter (beta lactamase induction) detected with GAL4 b-lactamase reporter gene. […] This assay endpoint, TOX21_p53_BLA_p4_ratio, was analyzed in the positive analysis fitting direction relative to DMSO as the negative control and baseline of activity. […]
Records with an inconclusive call do not appear. The source made the active and inactive calls. Rule for the calls: active = hit-call score of the fitted dose curve at least 0.9, where 1 is the maximum; inconclusive = response in the unintended direction; inactive = score below 0.9.
Outcomes: YES (active), NO (inactive)

[[record]]
molecule = "C=CC(=O)Nc1cc2c(Nc3ccc(F)c(Cl)c3)ncnc2cc1OCCCN1CCOCC1"
answer_label = "YES"

[[record]]
molecule = "O=C(O)c1cccc(/C=C2/C[C@@H]3[C@@H](/C=C/[C@@H](O)C4CCCCC4)[C@H](O)C[C@@H]3O2)c1"
answer_label = "NO"

[[record]]
molecule = "C[Si](C)(C)C"
answer_label = "NO"

[[record]]
molecule = "CC1=CC(=O)CC(C)(C)C1(O)/C=C/C(C)=C\\C(=O)O (stereo not given)"
answer_label = "NO"

[[record]]
molecule = "CC(C)[C@@H]1CC[C@@H](C)C[C@H]1OC(=O)c1ccccc1O"
answer_label = "NO"


Value source: PubChem BioAssay (EPA / NIEHS)
